This collection of values is drawn from patent US20090208447A1.

# SYSTEM UNDER TEST: HLA-A*0201 loaded with the Carcinoembryonic antigen (CEA)-derived … peptide (biotinylated on the C-terminal biotinylation tag)
# ASSAY: SPR (Biacore), Example 4
OUTCOME MEASURE: koff

>  <BINDER>
SEQ ID NO 73 (receptor) MHLPKPTLWAEPGSVITMDQPVTLRCQGGQETQEYRLYREKKTAPWITRIPQELVKKGQFPIPSITWEHAGRYRCVIQRGTAGRSESSDPLELVVTGVYIKPTLSAQPSPVVNSGGNVTLQCDSQVAFDGFILCKEGEDEHPQCLNSQPHARGSSRAIFSVGPVSPSRRWWYRCYAYDSNSPYEWSLPSDLLELDVDG

>  <koff>
≤ 2 s⁻¹

$$$$

For the next question, use this binder.
Endpoint output: koff of SEQ ID NO 65 (receptor) MHLPKPTLWAEPGSVITMDQPVTLRCQGGQETQEYRLYRERKTAPWITRIPQELVKKGQFPIPSITWEHAGRYRCYYGSDTSQWSASSDPLELVVTGVYIKPTLSAQPSPVVNSGGNVTLQCDSQVAFDGFILCKEGEDEHPQCLNSQPHARGSSRAIFSVGPVSPSRRWWYRCYAYDSNSPYEWSLPSDLLELDVDG . Value?
≤ 2 s⁻¹
